Tested on: Streptococcus D
Assay: in vitro antibacterial activity, agar dilution (Streptococcus D)
Assay type: cell-based
Design: unit not given here
Details: strain X66
Recorded endpoint: minimum inhibitory concentration

q: Notebook entry, Streptococcus D assay: minimum inhibitory concentration of CO/N=C(\C(=O)N[C@@H]1C(=O)N2C(C(=O)O)=C(c3csc(-c4ncc([N+](=O)[O-])s4)n3)CC[C@H]12)c1csc(N)n1 = ?
a: 64

q: Can you handle Nc1nc(C2=C(C(=O)O)N3C(=O)[C@@H](NC(=O)[C@H](N)c4ccccc4)[C@H]3CC2)cs1 next?
a: > 128

q: Can you handle CO/N=C(\C(=O)N[C@@H]1C(=O)N2C(C(=O)O)=C(c3csc(-c4ccco4)n3)CC[C@H]12)c1csc(N)n1 next?
a: > 128

q: Can you handle CO/N=C(\C(=O)N[C@@H]1C(=O)N2C(C(=O)O)=C(c3csc(-c4ccc(O)c(O)c4)n3)CC[C@H]12)c1csc(N)n1 next?
a: > 128

q: Can you handle CON=C(C(=O)NC1C(=O)N2C(C(=O)[O-])=C(c3csc(-c4ccc[n+](C)c4)n3)CCC12)c1csc(N)n1 (stereo not drawn) next?
a: > 128

q: Can you handle CO/N=C(\C(=O)N[C@@H]1C(=O)N2C(C(=O)O)=C(c3csc(C(c4ccccc4)c4ccccn4)n3)CC[C@H]12)c1csc(N)n1 (stereo partly drawn) next?
a: > 128

====

Tested on: Streptococcus D
Assay: in vitro antibacterial activity, agar dilution (Streptococcus D)
Format: cell-based
Design: unit not given here
Settings: strain 2041
Recorded endpoint: minimum inhibitory concentration
No unit in the answer, please; the number alone is enough.

q: Please give the measured minimum inhibitory concentration for this compound: Cn1c([N+](=O)[O-])cnc1-c1nc(C2=C(C(=O)O)N3C(=O)[C@@H](NC(=O)/C(=N\O)c4csc(N)n4)[C@H]3CC2)cs1
a: 1

q: Can you handle CO/N=C(\C(=O)N[C@@H]1C(=O)N2C(C(=O)O)=C(c3csc(-c4ccco4)n3)CC[C@H]12)c1csc(N)n1 next?
a: 16

q: Can you handle CO/N=C(\C(=O)N[C@@H]1C(=O)N2C(C(=O)O)=C(c3csc(-c4ncc([N+](=O)[O-])s4)n3)CC[C@H]12)c1csc(N)n1 next?
a: 4

q: Can you handle CO/N=C(\C(=O)N[C@@H]1C(=O)N2C(C(=O)O)=C(c3csc(-c4ccc([N+](=O)[O-])cc4)n3)CC[C@H]12)c1csc(N)n1 next?
a: 4

q: Can you handle CO/N=C(\C(=O)N[C@@H]1C(=O)N2C(C(=O)O)=C(c3csc(C(c4ccccc4)c4ccccn4)n3)CC[C@H]12)c1csc(N)n1 (stereo partly drawn) next?
a: 8

q: Can you handle CO/N=C(\C(=O)N[C@@H]1C(=O)N2C(C(=O)O)=C(c3csc(-c4ccc(O)c(O)c4)n3)CC[C@H]12)c1csc(N)n1 next?
a: 16

====

Tested on: Proteus rett
Experiment: in vitro antibacterial activity, agar dilution (Proteus rett)
Assay type: cell-based
Set-up: unit not given here
Settings: strain C24
I'd appreciate it if you could supply minimum inhibitory concentration values for the items below.

q: Please give the measured minimum inhibitory concentration for this molecule: CO/N=C(\C(=O)N[C@@H]1C(=O)N2C(C(=O)O)=C(c3csc(-c4ncc([N+](=O)[O-])s4)n3)CC[C@H]12)c1csc(N)n1
a: .06

q: Can you handle Nc1nc(C2=C(C(=O)O)N3C(=O)[C@@H](NC(=O)[C@H](N)c4ccccc4)[C@H]3CC2)cs1 next?
a: > 128

q: Can you handle CO/N=C(\C(=O)N[C@@H]1C(=O)N2C(C(=O)O)=C(c3csc(N)n3)CC[C@H]12)c1csc(N)n1 next?
a: .25

q: Can you handle CO/N=C(\C(=O)N[C@@H]1C(=O)N2C(C(=O)O)=C(c3csc(-c4ccc(O)c(O)c4)n3)CC[C@H]12)c1csc(N)n1 next?
a: .125

q: Can you handle CO/N=C(\C(=O)N[C@@H]1C(=O)N2C(C(=O)O)=C(c3csc(-c4ccc(F)cc4)n3)CC[C@H]12)c1csc(N)n1 next?
a: .125

q: Can you handle CO/N=C(\C(=O)N[C@@H]1C(=O)N2C(C(=O)O)=C(c3csc(-c4ccco4)n3)CC[C@H]12)c1csc(N)n1 next?
a: .5

q: Can you handle CO/N=C(\C(=O)N[C@@H]1C(=O)N2C(C(=O)O)=C(c3csc(-c4ccccc4)n3)CC[C@H]12)c1csc(N)n1 next?
a: .25

q: Can you handle CO/N=C(\C(=O)N[C@@H]1C(=O)N2C(C(=O)O)=C(c3csc(C(c4ccccc4)c4ccccn4)n3)CC[C@H]12)c1csc(N)n1 (some centres unmarked) next?
a: 4

q: Can you handle Cn1c([N+](=O)[O-])cnc1-c1nc(C2=C(C(=O)O)N3C(=O)[C@@H](NC(=O)/C(=N\O)c4csc(N)n4)[C@H]3CC2)cs1 next?
a: .06

q: Can you handle CO/N=C(\C(=O)N[C@@H]1C(=O)N2C(C(=O)O)=C(c3csc(-c4ccc([N+](=O)[O-])cc4)n3)CC[C@H]12)c1csc(N)n1 next?
a: .25

q: Can you handle CON=C(C(=O)NC1C(=O)N2C(C(=O)[O-])=C(c3csc(-c4ccc[n+](C)c4)n3)CCC12)c1csc(N)n1 (centres unmarked) next?
a: .03
